Attribution: ChEMBL document CHEMBL4513216

# ASSAY_SUMMARY: Toxicity liver stage against HepG2, at 10uM
# Assay type: cell-based
# Parameters: test concentration 10 uM, cell line HepG2-A16-CD81EGFP
# MEASUREMENT_CONDITIONS: human, HepG2-A16-CD81EGFP cells; read-out: INHIBITION
Would you mind telling me the reported cytotoxicity at 10 µM of each entry?
State just the number; it will be interpreted in %.

Q) Any idea what cytotoxicity at 10 µM was measured for COc1ccccc1N1CCC(CNCc2ccc(C#N)cc2)C1 (centres undefined) ?
A) -12.1

Q) Any idea what cytotoxicity at 10 µM was measured for O=C(NC1CCCC1)N1CCC2(CC1)CC(Oc1cccnc1)CO2 (centres undefined) ?
A) -5.6

Q) Any idea what cytotoxicity at 10 µM was measured for CS(=O)(=O)CCCC(=O)Nc1cc(-c2cccc(F)c2F)n[nH]1 ?
A) 4.77

Q) Any idea what cytotoxicity at 10 µM was measured for Cc1noc(C)c1CN1CC[C@H]2OCC[C@@]2(C(=O)N2CCCC2)C1 ?
A) -70.7

Q) Any idea what cytotoxicity at 10 µM was measured for COc1ccc(NC(=O)Cn2nc(C)c(C)cc2=O)cc1Cl ?
A) -6.47

Q) Any idea what cytotoxicity at 10 µM was measured for COC(=O)CCN(C)Cc1cc(Br)cs1 ?
A) 0.311

Q) Any idea what cytotoxicity at 10 µM was measured for CNCC[C@H]1CC(C)(C)Oc2ccc(OC)cc21 ?
A) 0.942

Q) Any idea what cytotoxicity at 10 µM was measured for CCN(CC)C(=O)Nc1ccc(C(=O)N(C)C)c(C)c1 ?
A) 7.52

Q) Any idea what cytotoxicity at 10 µM was measured for CN(C)c1ccccc1C(=O)N1C[C@@H](CN2CCC(O)CC2)[C@@H](CO)C1 ?
A) 3.11

Q) Any idea what cytotoxicity at 10 µM was measured for Cc1nn(C)c(Cl)c1C1CCCN1C(=O)c1ccnc(N(C)C)c1 (centres undefined) ?
A) -6.73

Q) Any idea what cytotoxicity at 10 µM was measured for CC(c1ccccn1)N(C)C(=O)NCCn1c(=O)oc2ccccc21 (centres undefined) ?
A) -6.37

Q) Any idea what cytotoxicity at 10 µM was measured for CCc1cc(CN(C)C(=O)c2cnc3c(c2)nc(N)n3CC)on1 ?
A) 1.3

Q) Any idea what cytotoxicity at 10 µM was measured for COCCCC(=O)Nc1cccnc1N1CCCCC1 ?
A) -6.34

Q) Any idea what cytotoxicity at 10 µM was measured for c1csc(-c2nc(CN3CCn4c(nnc4C4CC4)C3)co2)c1 ?
A) 7.17

Q) Any idea what cytotoxicity at 10 µM was measured for CCn1nc(C)c(CCNC(=O)c2cccc(NCC(=O)O)c2)c1C ?
A) 15.2

Q) Any idea what cytotoxicity at 10 µM was measured for Cc1nc(C(C)(C)NC(=O)Nc2ccccc2)no1 ?
A) -1.48

Q) Any idea what cytotoxicity at 10 µM was measured for Oc1nc(N2CCOCC2)nc2c1CCN(Cc1ccccc1)CC2 ?
A) -4.03

Q) Any idea what cytotoxicity at 10 µM was measured for O=C(Nc1cn[nH]c1)N(CCCO)C1CCc2ccccc21 (centres undefined) ?
A) -1.74

Q) Any idea what cytotoxicity at 10 µM was measured for O=C(CCc1nc2cccnc2[nH]1)NCc1ccncc1 ?
A) 3.72

Q) Any idea what cytotoxicity at 10 µM was measured for O[C@H]1CN(Cc2c[nH]nc2-c2ccccc2)CC[C@@]12CCCO2 ?
A) 10.3

Q) Any idea what cytotoxicity at 10 µM was measured for CCn1nc(C)c(CNC(=O)c2nnc3ccc(OC)cc3n2)c1C ?
A) 6.58

Q) Any idea what cytotoxicity at 10 µM was measured for O=C(O)c1cc(S(=O)(=O)Nc2ccc(F)cc2F)cc2c1OCCO2 ?
A) -1.2

Q) Any idea what cytotoxicity at 10 µM was measured for c1cc(CN2CCOC[C@H]2c2nc(-c3ccncc3)c[nH]2)ccn1 ?
A) -2.65

Q) Any idea what cytotoxicity at 10 µM was measured for CCn1cc2c(n1)CN(S(=O)(=O)c1cn(C)cn1)CC2COC (centres undefined) ?
A) 5.41
